B1: PTPN9 (parent)
chain: NKWTVQYNVSPLSWNVAVKFLMAR

variants of: B1; assay: protein stability index of a GFP-peptide fusion (GPS, HEK-293T) (PSI 1-6); higher = more stable; settings: c terminus: a fixed tail appended;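 note: lentivirally expressed fusions sorted by FACS into six bins by GFP to DsRed ratio, PSI derived from sequencing read proportions per bin multiplied by bin number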

- variant annotation: "R24L"
  protein stability index: 1.53
- variant annotation: "K19H"
  protein stability index: 3.44
- variant annotation: "S10M"
  protein stability index: 2.81
- variant annotation: "W14D"
  protein stability index: 1.62
- variant annotation: "N8C"
  protein stability index: 3.2
- variant annotation: "V18A"
  protein stability index: 2.48
- variant annotation: "R24P"
  protein stability index: 1.23
- variant annotation: "S13G"
  protein stability index: 2.81
- variant annotation: "V18E"
  protein stability index: 1.49
- variant annotation: "Q6A"
  protein stability index: 1.78
- variant annotation: "V18T"
  protein stability index: 2.76
- variant annotation: "W14P"
  protein stability index: 2.08
- variant annotation: "F20C"
  protein stability index: 1.68
- variant annotation: "F20W"
  protein stability index: 3.8
- variant annotation: "K19R"
  protein stability index: 2.64
- variant annotation: "S13W"
  protein stability index: 2.65
- variant annotation: "L12D"
  protein stability index: 3.6
- variant annotation: "Q6S"
  protein stability index: 2.46
- variant annotation: "L21G"
  protein stability index: 1.73
- variant annotation: "V5E"
  protein stability index: 2.94
- variant annotation: "K2F"
  protein stability index: 1.49
- variant annotation: "K19M"
  protein stability index: 2.06
- variant annotation: "V9E"
  protein stability index: 1.46
- variant annotation: "V9W"
  protein stability index: 2.98
- variant annotation: "T4M"
  protein stability index: 2.57
- variant annotation: "K2Y"
  protein stability index: 2.49
- variant annotation: "R24V"
  protein stability index: 2.97
- variant annotation: "N8L"
  protein stability index: 2.45
- variant annotation: "N8H"
  protein stability index: 2.26
- variant annotation: "S13N"
  protein stability index: 3.31
- variant annotation: "Q6E"
  protein stability index: 3.28
- variant annotation: "R24C"
  protein stability index: 2.63
- variant annotation: "S10T"
  protein stability index: 3.21
- variant annotation: "W3H"
  protein stability index: 1.02
- variant annotation: "V5A"
  protein stability index: 2.04
- variant annotation: "M22C"
  protein stability index: 2.06
- variant annotation: "A23R"
  protein stability index: 2.58
- variant annotation: "F20G"
  protein stability index: 2.97
- variant annotation: "F20P"
  protein stability index: 1.68
- variant annotation: "T4P"
  protein stability index: 1.76
- variant annotation: "V18W"
  protein stability index: 1.77
- variant annotation: "S13R"
  protein stability index: 2.34
- variant annotation: "W14C"
  protein stability index: 2.29
- variant annotation: "N1F"
  protein stability index: 3.7
- variant annotation: "K19Q"
  protein stability index: 3.01
- variant annotation: "R24D"
  protein stability index: 2.41
- variant annotation: "Q6H"
  protein stability index: 3.77
- variant annotation: "R24G"
  protein stability index: 2.72
- variant annotation: "V16D"
  protein stability index: 1.93
- variant annotation: "V16A"
  protein stability index: 2.35
- variant annotation: "A23F"
  protein stability index: 2.72
- variant annotation: "A23M"
  protein stability index: 3.33
- variant annotation: "L21M"
  protein stability index: 2.35
- variant annotation: "L21N"
  protein stability index: 1.72
- variant annotation: "M22E"
  protein stability index: 1.73
- variant annotation: "V18C"
  protein stability index: 2.73
- variant annotation: "Y7P"
  protein stability index: 1.84
- variant annotation: "R24S"
  protein stability index: 1.83
- variant annotation: "V9S"
  protein stability index: 2
- variant annotation: "Q6V"
  protein stability index: 2.79
- variant annotation: "R24Q"
  protein stability index: 2.94
- variant annotation: "V16M"
  protein stability index: 3.58
- variant annotation: "L12W"
  protein stability index: 3.11
- variant annotation: "Y7I"
  protein stability index: 2.83
- variant annotation: "T4L"
  protein stability index: 1.71
- variant annotation: "N15M"
  protein stability index: 2.53
- variant annotation: "L21A"
  protein stability index: 3.37
- variant annotation: "T4A"
  protein stability index: 2.55
- variant annotation: "V18D"
  protein stability index: 2.03
- variant annotation: "S13A"
  protein stability index: 1.35
- variant annotation: "Y7H"
  protein stability index: 1.68
- variant annotation: "L21E"
  protein stability index: 1.9
- variant annotation: "M22Y"
  protein stability index: 3.05
- variant annotation: "W3P"
  protein stability index: 1.7
- variant annotation: "W14G"
  protein stability index: 2.35
- variant annotation: "A23D"
  protein stability index: 2.21
- variant annotation: "Y7C"
  protein stability index: 2.47
- variant annotation: "Q6D"
  protein stability index: 2.28
- variant annotation: "V9L"
  protein stability index: 2.45
- variant annotation: "L21T"
  protein stability index: 2.9
- variant annotation: "A23L"
  protein stability index: 4.22
- variant annotation: "A17H"
  protein stability index: 2.23
- variant annotation: "V5K"
  protein stability index: 3.16
- variant annotation: "K2T"
  protein stability index: 3.13
- variant annotation: "R24Y"
  protein stability index: 2.66
- variant annotation: "F20H"
  protein stability index: 1.67
- variant annotation: "V5C"
  protein stability index: 1.83
- variant annotation: "R24H"
  protein stability index: 2.82
- variant annotation: "L21S"
  protein stability index: 3.66
- variant annotation: "W14I"
  protein stability index: 3.02
- variant annotation: "L21W"
  protein stability index: 1.63
